Source listed as patent US8716242B2.

Test system: human red blood cells (hRBC)
Assay: Hemolysis of human red blood cells
Format: cell-based
Conditions: 20% hRBC, 1 h, 37° C.
Bridge positions count the residues as written; N and C are the ends. Square brackets hold non-standard residues; d marks the D form. Peptide text beside a SMILES is read from it. * marks the point of attachment. Gly(Dodecyl) = CCCCCCCCCCCC[C@H](N)C(=O)O; Lauroyl = CCCCCCCCCCCC(=O)*; Decanoyl = CCCCCCCCCC(=O)*; Dab = NCC[C@H](N)C(=O)O; Dodecyl = CCCCCCCCCCCC*; X3 = CCCCCCCCCC*
Readout type: Hemolysis at 100 μM (%)
Give bare numbers, in %.

Reference set, count: 4
Compound	Assayed target	Readout units	Meas value
CCCCCCCCCCOC[C@@H]1NC(=O)[C@H](Cc2ccc(O)cc2)NC(=O)[C@@H]2CSSC[C@H](NC(=O)[C@H]([C@@H](C)O)NC(=O)[C@H](Cc3c[nH]cn3)NC(=O)[C@H](Cc3ccc(O)cc3)NC(=O)[C@@H]3CCCN3C(=O)[C@H]3CCCN3C(=O)[C@H](CCC(N)=O)NC1=O)C(=O)N[C@@H](CCCNC(=N)N)C(=O)NCC(=O)N1CCC[C@@H]1C(=O)N[C@@H](CCN)C(=O)N[C@@H](CCCNC(=N)N)C(=O)N[C@@H](Cc1ccc(O)cc1)C(=O)N2 [Ex. 30] (cyclo(YHTCRG[dP][Dab]RYCYS(X3)Q[dP]P); disulfide 4-11)	human red blood cells (hRBC)	%	5.5
CCCCCCCCCCCC(=O)NCC[C@@H]1NC(=O)[C@H]2CCCN2C(=O)[C@H](C)NC(=O)[C@H](CCCNC(=N)N)NC(=O)[C@@H]2CSSC[C@H](NC(=O)[C@H](Cc3ccc(O)cc3)NC(=O)[C@H](CCCNC(=N)N)NC1=O)C(=O)N[C@@H](Cc1ccc(O)cc1)C(=O)N[C@@H](CCC(N)=O)C(=O)N[C@@H](CCCCN)C(=O)N1CCC[C@@H]1C(=O)N1CCC[C@H]1C(=O)N[C@@H](Cc1ccc(O)cc1)C(=O)N[C@@H](Cc1c[nH]cn1)C(=O)N[C@@H](C)C(=O)N2 [Ex. 5] (cyclo(YHACRA[dP][Dab](Lauroyl)RYCYQK[dP]P); disulfide 4-11)	human red blood cells (hRBC)	%	0.3
CCCCCCCCCCCC[C@@H]1NC(=O)[C@H](Cc2c[nH]cn2)NC(=O)[C@H](Cc2ccc(O)cc2)NC(=O)[C@@H]2CCCN2C(=O)[C@H]2CCCN2C(=O)[C@H](CCCCN)NC(=O)[C@H](CCC(N)=O)NC(=O)[C@H](Cc2ccc(O)cc2)NC(=O)[C@@H]2CSSC[C@H](NC1=O)C(=O)N[C@@H](CCCNC(=N)N)C(=O)N[C@@H](C)C(=O)N1CCC[C@@H]1C(=O)N[C@@H](CCN)C(=O)N[C@@H](CCCNC(=N)N)C(=O)N[C@@H](Cc1ccc(O)cc1)C(=O)N2 [Ex. 2] (cyclo(YH[Gly(Dodecyl)]CRA[dP][Dab]RYCYQK[dP]P); disulfide 4-11)	human red blood cells (hRBC)	%	1.7
CCCCCCCCCC(=O)NCC[C@@H]1NC(=O)[C@H](Cc2ccc(O)cc2)NC(=O)[C@@H]2CSSC[C@H](NC(=O)[C@H](C)NC(=O)[C@H](Cc3c[nH]cn3)NC(=O)[C@H](Cc3ccc(O)cc3)NC(=O)[C@@H]3CCCN3C(=O)[C@H]3CCCN3C(=O)[C@H](CCCCN)NC1=O)C(=O)N[C@@H](CCCNC(=N)N)C(=O)N[C@@H](C)C(=O)N1CCC[C@@H]1C(=O)N[C@@H](CCN)C(=O)N[C@@H](CCCNC(=N)N)C(=O)N[C@@H](Cc1ccc(O)cc1)C(=O)N2 [Ex. 10] (cyclo(YHACRA[dP][Dab]RYCY[Dab](Decanoyl)K[dP]P); disulfide 4-11)	human red blood cells (hRBC)	%	1.0

Kindly consider the entry below.
Task item: Please list Hemolysis at 100 μM recorded for the compound CCCCCCCCCCCCOc1ccc(C[C@@H]2NC(=O)[C@H](CCCNC(=N)N)NC(=O)[C@H](CCN)NC(=O)[C@H]3CCCN3C(=O)[C@H](C)NC(=O)[C@H](CCCNC(=N)N)NC(=O)[C@@H]3CSSC[C@H](NC2=O)C(=O)N[C@@H](Cc2ccc(O)cc2)C(=O)N[C@@H](CCC(N)=O)C(=O)N[C@@H](CCCCN)C(=O)N2CCC[C@@H]2C(=O)N2CCC[C@H]2C(=O)N[C@@H](Cc2ccc(O)cc2)C(=O)N[C@@H](Cc2c[nH]cn2)C(=O)N[C@@H](C)C(=O)N3)cc1 [Ex. 7] (cyclo(YHACRA[dP][Dab]RY(Dodecyl)CYQK[dP]P); disulfide 4-11)
Reply: 11.5
